Each recorded value in this set is attributed to patent US20100267561A1.

tested on: giant foxtail (Setaria faberii); test: Test B pre-/postemergence plant response; format: in vivo; settings: 8 g ai/ha, postemergence; 0-100 scale
Mark T for Foxtail, Giant plant response rating under 80, F if at or over.

Sample answers from the record:
// query Is it true that Foxtail, Giant plant response rating reported for Cc1cc(-c2ccc(Br)cc2)nn1-c1c(O)cn[nH]c1=O [Compound 78] is less than 80?
// result F

// query Is it true that Foxtail, Giant plant response rating reported for Cn1ncc(O)c(-c2nn(-c3ccc(Cl)cc3)cc2Cl)c1=O [Compound 28] is less than 80?
// result T

// query Is it true that Foxtail, Giant plant response rating reported for CCc1cc(-c2ccc(F)cc2)nn1-c1c(O)cnn(C)c1=O [Compound 25] is less than 80?
// result T

// query Is it true that Foxtail, Giant plant response rating reported for Cc1cc(-c2ccc(Br)cc2)nn1-c1c(OC(=O)C2CC2)cnn(C(=O)C2CC2)c1=O [Compound 80] is less than 80?
// result F

// query Is it true that Foxtail, Giant plant response rating reported for Cc1cc(-c2ccc(Cl)cc2)nn1-c1c(OC(=S)N(C)C)cnn(C)c1=O [Compound 69] is less than 80?
// result T

// query Is it true that Foxtail, Giant plant response rating reported for CCc1cc(-c2ccc(C(F)(F)F)cc2)nn1-c1c(O)cnn(CC)c1=O [Compound 67] is less than 80?
// result F

--- query ---
// query Is it true that Foxtail, Giant plant response rating reported for CCc1cc(-c2ccc(C(F)(F)F)cc2)nn1-c1c(OS(C)(=O)=O)cnn(C)c1=O [Compound 19] is less than 80?
// result F
